Catalogue of binders with associated Neutralizing activity IC50
molecular target: baboon EL (baboon); assay: cell-based or functional assay
Measured Endpoint: Neutralizing activity IC50 (nM)

- Binder: "23H8 (antibody, mouse IgG2a, V domains shown, mouse IgG2a from hybridoma; also called 23H8 (mouse mAb)) VH: EVQLQQSGPELLKPGASVKISCKASGYTFTDNTIHWVKQSHGKSLEWIGHINPYYGGTNNNEKFKDKATLTVDKSSSTAYMELRSLTSEDSAIYYCARKGIYYSSPFDYWGQGTTLTVSS VL: DIQMTQTTSSLSASLGDRVTISCRASQDINNYLNWYQQKPDGTVKLLISYTSKLHSGVPSRFSGSGSGTDYSLTISNLEREDFATYFCQQGNTLPFTFGSGTNLEIK"
  Recorded Number: 3.2
- Binder: "16E7 (antibody, mouse IgG1, V domains shown, mouse IgG1 from hybridoma) VH: EVKLVESGGGLVQPGGSLKLSCAASGFTFSSYTMSWVRQTPEKRLELVAEISFTRSRAFYPDTVKGRFTISRDNAKNTLYLQMSSLKSEDTAMYYCARLGGNNYDYWYFDVWGTGTTVTVSS VL: DIVLTQSPTSLAVSLGQRATISCRASESVEYYGTSLMQWYQQKPGQRPKLLIYAASNVESGVPARFSGSGSGTDFSLNIHPVEEDDIAMYFCQQSWKVPFTFGSGTKLEIK"
  Recorded Number: 2.1
- Binder: "55A1 (antibody, mouse IgG2a, V domains shown, mouse IgG2a from hybridoma; also called 55A1 (mouse mAb)) VH: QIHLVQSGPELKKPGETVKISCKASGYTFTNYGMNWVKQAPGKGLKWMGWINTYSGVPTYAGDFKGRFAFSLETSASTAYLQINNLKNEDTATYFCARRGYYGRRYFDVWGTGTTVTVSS VL: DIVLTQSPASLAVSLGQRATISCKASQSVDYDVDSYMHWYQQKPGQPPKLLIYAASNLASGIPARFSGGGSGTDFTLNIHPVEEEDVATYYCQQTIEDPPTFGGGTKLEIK"
  Recorded Number: 2
